test_summary: yeast display, Sf9 membrane polyspecificity reagent, FACS + sequencing; frameworks hold sequencing errors

>  <construct_sequence>
QVQLVESGGGLVQAGGSLRLSCAASGSTFVAYAMGWYRQAPGKERELVAAISASGVRTYYADSVKGRFTISRDNAKNTVYLQMNSLKPEDTAVYYCAATVFRKYRYGYWGQGTQVTVSS

>  <polyreactivity (PSR sort gate)>
high polyreactivity

$$$$
>  <construct_sequence>
QVHLVESGGGLVQAGGSLRLSCAASGSTFQSNAMGWYRQAPGKERELVATITQSGATTYYADSVKGRFTISRDNAKNTVYLQMNSLNPEDTAVYYCNVDTYQKRWFWLDLDGGYWGQGTQVTVSS

>  <polyreactivity (PSR sort gate)>
low polyreactivity

$$$$
>  <construct_sequence>
QVQLVESGGGLVQAGGSLRLSCAASGSILYRYAMGWYRQAPGKERELVAAITRSGGSTYYADSVKGRFTITRDNAKNTVYFQMNSLKPEDTAGYYCARQRKVSAHSIEMDYWGQGTQVTVSS

>  <polyreactivity (PSR sort gate)>
low polyreactivity

$$$$
>  <construct_sequence>
QVQLVESGGGLVQAGGSLRLSCAASGFSFYRYAMGWYRQAPAKERELVARTYYADSVKGRFTISRDNAKNTVYLQMNSLKPEDTAVYYCNKDLELEYRYEYWGQGTQVTVSS

>  <polyreactivity (PSR sort gate)>
low polyreactivity

$$$$
>  <construct_sequence>
QVQLVESGGGLVQAGGSLRLSCAASGSTFSQNAMGWYRQAPGKERELVAAITSGGITYYADSVKGRFTISRDNAKNTVYLQMNSLKPEDTAVYYCAAVTPSGAHRSAYHPISDYWGQGTQVTVSS

>  <polyreactivity (PSR sort gate)>
low polyreactivity

$$$$
>  <construct_sequence>
QVQHVESGGVLVQARGSLRLTCAASGSTFIRNAMGWYRQAPGKERELVAAISASGGRSYYADSVKGRFTFSRDNAKTSVYCQLNSLKSEDTAVYYFAARNARYVHTMVFWGQGTQVTVSS

>  <polyreactivity (PSR sort gate)>
high polyreactivity

$$$$
>  <construct_sequence>
QVQLVESGGGLVQAGGSLRLSCAASGRTFWYYPMGGYRQEPGKERELVAAITRGTSTYADSVKGRFTISRDNAKTTVYLQMNSLKPEDTAVDYCAADTWGTRNSRYDYWGQGTQVTVSS

>  <polyreactivity (PSR sort gate)>
high polyreactivity

$$$$
>  <construct_sequence>
QVQLVESGGGLVQAGGSLRLSCAASGSISYSYAMGWYRQAPGKERELVAAISWRGVSTYYADSVKGRFTISRDNAKNTVYLQMNSLKPEDTAVYYCNAVHHYPEHIGGGYWGQGTQVTVSS

>  <polyreactivity (PSR sort gate)>
low polyreactivity

$$$$
>  <construct_sequence>
QGQRVESGGGLVQAGASLRLSCAASGFIFWEYAMGWSRQAPGKERELVAAISDSGGDTYYADSVKGRFTISRDNAKNTVYLEMHSLKPEDSAVYFCAADVELWVFRGQQYDYWGQGTQVTVSS

>  <polyreactivity (PSR sort gate)>
low polyreactivity

$$$$
>  <construct_sequence>
QVQLVESGGGLVQAGGSLRLSCAASGSIFIVNAMGWYRPAPGKERELVAAISRSGGRTYYADSVKVRFTISRDNAKNTVYLQMNSLKPEDTAVYYCNARSRARKVAYDYWGQGTQVTVSS

>  <polyreactivity (PSR sort gate)>
high polyreactivity

$$$$
>  <construct_sequence>
QVQLVESGGGLVQAGGSLRLSCAASGLTLYQYSMGWYRQAPGKERELVAAIPTSGSTYFADSVKGRFTISRDNAKNTVYLQMNSLKPEDTAVYYCAADVYYVDTLSGYRYGYDYWGQCTQVTVSS

>  <polyreactivity (PSR sort gate)>
low polyreactivity

$$$$
>  <construct_sequence>
QGQLVESGGGLVQAGGSLRLSCAASGITFGDNAMGWYRQAPGKERELVAAISSGGSTDYADSVKGRFTISRDNAKNTVYLQMNSLKPEDTAVYYCAFDWVSVPEYDYWGQGTQVTVSS

>  <polyreactivity (PSR sort gate)>
low polyreactivity

$$$$
>  <construct_sequence>
QVQLVESGGGLVQAGGSLRLSCAASGFTFYLYALGWYRQAPGKERELVAAITYSGGSTYYADSVKGRFTISRDNAKNTVYLQMNSLKPEDTAVYYCAADARGKVYWGQGTQVTVSS

>  <polyreactivity (PSR sort gate)>
high polyreactivity

$$$$
>  <construct_sequence>
QVQLVESGGGLVQAGGSLRLTCAASGNTFYGYSKGWYRQATGKERELVASISLSGDSTYYADSVKGRFTISRDNAKNTVYLQLNSLKPEDTAVYYCAGVYTYPLGYYHYTYDYWGQGTQVTVSS

>  <polyreactivity (PSR sort gate)>
low polyreactivity

$$$$
>  <construct_sequence>
QVQLVESGGGLVQAGGSLSLSCAASGSIIARYAMGWYRQAPGKERELVAAITWSATSTYYADSVKGRFTISRDNAKNTVYLQMTSLKPEDTAVYYCNAGASYFLVISQSRRDYWGQGTQVTVSS

>  <polyreactivity (PSR sort gate)>
low polyreactivity

$$$$
>  <construct_sequence>
QVQLVESGGGLVQAGGSLRLSCAASGSTFRFYAMGWYRQAPGKERELVAAISSGGSTNYADSVKGRFTISRDNAKNTVYLQMNSLKPEDTAVYYCNAEDYNGRQYYHKMDYWGQGTQVTVSS

>  <polyreactivity (PSR sort gate)>
high polyreactivity

$$$$
>  <construct_sequence>
QVQLVESGGGLVQAGGRLRLICAASGSILNNYAMGWYRQAPGKERELVAAISSSGGTNYADSVKGRFTISRDNAKNTVYLQMNSLKPEDTAVYYCNADVLDGGYDYWGQGTQVTVSS

>  <polyreactivity (PSR sort gate)>
low polyreactivity

$$$$
>  <construct_sequence>
QVQLVESGGGLVQAGGSLRLSCAASGSTFPLNVMGWYRQAPGKERELVAAISSSGGRTYYADSVKGRFTISRDNAKNTVYLQMNSLKPEDTAVYYCNARWRKNLSGRVFRYDYWGQGTQVTVSS

>  <polyreactivity (PSR sort gate)>
high polyreactivity

$$$$
>  <construct_sequence>
QVQLVESGGGLVQAGGSLRLSCAASGRTFGGNAMGWYRQAPGKERELVAAISRSGGRTYYADSVKGRFTISRDNAKNTVYLQMNSLKPEDTAVYYCAAKYQYTQYDYWGQGTQVTVSS

>  <polyreactivity (PSR sort gate)>
high polyreactivity

$$$$
>  <construct_sequence>
QVQLVESGGGLVQAGGSLRLSCAASGRTFWYYAMGWYRQAPGKERELVAAITYRGGSTYYADSVKGRFTISRDNVKNTVYLQMNSLKPEDTAVYYCARRVDSYYGHTRYYYWGQGTQVTVSS

>  <polyreactivity (PSR sort gate)>
high polyreactivity

$$$$
>  <construct_sequence>
QVQLVESGGGLVHEGGSLRLSCAASGRLFKSYAMGWYRQAPVKERELVAAISRSGGRTYYADSVKGRFTISRDNAKNTVYLQMNSLKPEDTAVYYCAATTFVAPYWGQGTQVTVSS

>  <polyreactivity (PSR sort gate)>
low polyreactivity

$$$$
